Hello, the source for this data is ChEMBL document CHEMBL1141966, in case you need it.

target: Protein farnesyltransferase (Homo sapiens, UniProt P49354+P49356); test: Inhibitory activity against K-Ras farnesyl transferase
pIC50: −log10 of the molar value.
quantity.kind: pIC50

Some entries whose results are on file:
N#Cc1ccc(Cn2cnnc2CN(CCc2ccc(Br)cc2)C(=O)c2ccc3c(c2)OCO3)cc1
7.21
N#Cc1ccc(Cn2cnnc2CN(Cc2ccc(F)cc2F)C(=O)c2ccc3ccccc3c2)cc1
8.66
N#Cc1ccc(Cn2cnnc2CN(CCc2ccc(Br)cc2)C(=O)c2cc3ccccc3o2)cc1
7.27

1. N#Cc1ccc(Cn2cncc2CN(Cc2ccc(F)cc2F)C(=O)c2ccc3ccccc3n2)cc1
2. N#Cc1ccc(Cn2cnnc2CN(CCc2ccc(Br)cc2)C(=O)c2cc3ccccc3s2)cc1
3. N#Cc1ccc(Cn2cnnc2CN(Cc2ccc(F)cc2F)C(=O)c2ccc3ccccc3n2)cc1
4. N#Cc1ccc(Cn2cnnc2CN(C(=O)c2ccc3ccccc3n2)c2ccc(Oc3ccccc3)cc2)cc1
5. N#Cc1ccc(Cn2cnnc2CN(Cc2ccc(F)cc2F)C(=O)c2ccc3ccccc3n2)nc1
Ask: Arrange the 5 compounds by rising pIC50, starting with the smallest. The response must list the labels following the requested ordering.
Result: 1, 2, 4, 5, 3

====

target: Protein farnesyltransferase (Homo sapiens, UniProt P49354+P49356); experiment: Inhibitory activity against K-Ras farnesyl transferase
quantity.kind: IC50 (nM)

For orientation, consider the following solved cases.
Cc1nnc(CN(Cc2ccc(F)cc2F)C(=O)c2ccc3ccccc3n2)n1Cc1ccc(C#N)cc1
0.9
N#Cc1ccc(Cn2cnnc2CN(Cc2ccc(F)cc2)C(=O)c2ccc3ccccc3n2)cc1
5
N#Cc1ccc(Cn2cnnc2CN(Cc2ccc([N+](=O)[O-])cc2)C(=O)c2ccc3ccccc3n2)cc1
1.6
COc1ccc(CCN(Cc2nncn2Cc2ccc(C#N)cc2)C(=O)c2ccc3ccccc3n2)cc1
75
N#Cc1ccc(Cn2cnnc2CN(CCc2ccc(Br)cc2)C(=O)c2ccc3ccccc3n2)cc1
26

a. N#Cc1ccc(Cn2cnnc2CN(CCc2ccc(Br)cc2)C(=O)c2ccco2)cc1
b. N#Cc1ccc(Cn2cnnc2CN(CCc2ccc(F)cc2)C(=O)c2ccc3ccccc3n2)cc1
c. N#Cc1ccc(Cn2cnnc2CN(CCc2ccc(Br)cc2)C(=O)c2ccc3ccccc3c2)cc1
Ask: List these items ordered by IC50, big to small. # respond with the labels, arranged in the requested order
Result: a, c, b
